Reported values of pIC50 for individual entries
subject-of-test: PDE 4 (phosphodiesterase IV)
assay-summary: PDE 4 inhibiting effect (3H-cAMP hydrolysis, PDE 4 active fraction from Balb/c mouse liver)
Assay type: biochemical
test-parameters: PDE 4 fraction from Balb/c mice liver, 0.064 μM cAMP, 2 hours at 25° C.; read-out: PDE4 IC50
The value called pIC50 is obtained by taking minus log10 of the concentration in mol/L.

{"smiles-notation": "Cc1nn(C2CCOCC2)c2sc(C(=O)N[C@H]3CC[C@H](N4CCC(O)CC4)CC3)cc12", "pIC50": 4.89}
{"smiles-notation": "Cc1nn(C2CCCCC2)c2sc(C(=O)Nc3ccc4c(c3)CCN4C(=O)C(C)C)cc12", "pIC50": 5.32}

Moving on to the next compound.
Query: What does the data say about its pIC50? Entry: Cc1nn(C2CCCCC2)c2sc(C(=O)N[C@H]3CC[C@H](CO)CC3)cc12
Reply: 5.42

---

Recorded pIC50 by entry
subject-of-test: PDE 4 (phosphodiesterase IV)
assay-summary: PDE 4 inhibiting effect (3H-cAMP hydrolysis, PDE 4 active fraction from Balb/c mouse liver)
Format: biochemical
test-parameters: PDE 4 fraction from Balb/c mice liver, 0.064 μM cAMP, 2 hours at 25° C.; read-out: PDE4 IC50
Schema: pIC50 number; meaning minus log10 of the concentration expressed in molar units.

Examples with answers:
{"molecule": "Cc1nn(C2CCCCC2)c2sc(C(=O)Nc3ccc4c(c3)CCN4S(C)(=O)=O)cc12", "pIC50": 5.15}
{"molecule": "Cc1nn(C2CCCCC2)c2sc(C(=O)Nc3ccc(N)cc3)cc12", "pIC50": 5.30}
{"molecule": "Cc1nn(C2CCCCC2)c2sc(C(=O)Nc3ccc(CO)nc3)cc12", "pIC50": 5.46}

Query: Which pIC50 is listed for Cc1nn(C2CCCCC2)c2sc(C(=O)N[C@H]3CC[C@H](N4CCOC4=O)CC3)cc12 ?
Reply: 5.74

Query: Next molecule up: Cc1nn(C2CCCCC2)c2sc(C(=O)Nc3ccc(N4CC[C@@H](O)C4)c(F)c3)cc12
Reply: 5.46

Query: Now consider Cc1nn(C2CCCCC2)c2sc(C(=O)N[C@H]3CC[C@H](C#N)CC3)cc12 .
Reply: 5.13

Query: Now give it for CC(=O)N1CCN(C[C@H]2CC[C@H](NC(=O)c3cc4c(C)nn(C5CCOCC5)c4s3)CC2)CC1 too.
Reply: 5.10

Query: Another: Cc1nn(C2CCCCC2)c2sc(C(=O)N[C@H]3CC[C@H](CN4C(=O)CNC4=O)CC3)cc12
Reply: 5.85

Query: Let us now turn to Cc1nn(C2CCCCC2)c2sc(C(=O)Nc3ccc(S(=O)(=O)N4CCN(C)CC4)cc3)cc12
Reply: 4.60

Query: Same thing, different molecule: Cc1nn(C2CCCCC2)c2sc(C(=O)Nc3ccc(C4CCN(C)CC4)cc3)cc12
Reply: 5.70

---

subject-of-test: PDE 4 (phosphodiesterase IV)
assay-summary: PDE 4 inhibiting effect (3H-cAMP hydrolysis, PDE 4 active fraction from Balb/c mouse liver)
Assay type: biochemical
test-parameters: PDE 4 fraction from Balb/c mice liver, 0.064 μM cAMP, 2 hours at 25° C.; read-out: PDE4 IC50
Counter-ions that a name gives are not always drawn.
readout-type: pIC50
In textbook form, pIC50 equals minus log to base ten of the concentration in mol/L.

{"compound": "Cc1nn(C2CCCCC2)c2sc(C(=O)Nc3ccc(N4CCN(C)CC4)nc3)cc12 [Example 109, di-HCl salt]", "readout-type": "pIC50", "test-value": 6.00}
{"compound": "Cc1nn(C2CCCCC2)c2sc(C(=O)Nc3ccc(N4CCNC(=O)C4)cc3)cc12", "readout-type": "pIC50", "test-value": 5.74}
{"compound": "Cc1nn(C2CCCCC2)c2sc(C(=O)Nc3ccc(OCC(=O)N4CCN(C)CC4)cc3)cc12", "readout-type": "pIC50", "test-value": 5.70}
{"compound": "Cc1nn(C2CCCCC2)c2sc(C(=O)NCCN3CC(=O)N(C)C3=O)cc12", "readout-type": "pIC50", "test-value": 4.92}
{"compound": "CC(=O)n1ccc2cc(NC(=O)c3cc4c(C)nn(C5CCCCC5)c4s3)ccc21", "readout-type": "pIC50", "test-value": 5.19}
{"compound": "Cc1nn(C2CCCCC2)c2sc(C(=O)Nc3ccc(C(=O)N4CCN(C)CC4)nc3)cc12", "readout-type": "pIC50", "test-value": 5.82}
{"compound": "Cc1nn(C2CCOCC2)c2sc(C(=O)N[C@H]3CC[C@H](N4CCC(CO)CC4)CC3)cc12", "readout-type": "pIC50", "test-value": 5.09}
{"compound": "Cc1nn(C2CCCCC2)c2sc(C(=O)Nc3ccc(NC=O)cc3)cc12", "readout-type": "pIC50", "test-value": 5.46}
{"compound": "Cc1nn(C2CCCCC2)c2sc(C(=O)N[C@H]3CC[C@H](C(=O)O)CC3)cc12", "readout-type": "pIC50", "test-value": 4.85}
{"compound": "Cc1nn(C2CCCCC2)c2sc(C(=O)N[C@H]3CC[C@H](N4CCNCC4)CC3)cc12", "readout-type": "pIC50", "test-value": 6.15}

Next item in the queue.
Query: Entry COC1CCN([C@H]2CC[C@H](NC(=O)c3cc4c(C)nn(C5CCCCC5)c4s3)CC2)CC1 , system PDE 4 (phosphodiesterase IV): what pIC50 was measured?
Reply: 5.82
